The origin of these recorded values is patent US20230414780A1.

- TESTED TARGET: T1, rhesus monkey TfR ectodomain fused to a mouse IgG1 Fc fragment (rhesus monkey, UniProt I0FKY7 89-760)
- T1 construct: extracellular domain; not shown: mouse IgG1 Fc fragment
- ASSAY: SPR, at equilibrium
The entries below come with measured Kd values attached.
Write the value in nM as a bare number.

Example binders with recorded Kd:
VHH A (C5) (VHH, form with the C-terminal myc-His6 tag (x = 1), since the VHHs were detected with anti-6His or anti-cMyc; the same holds for m12 to m126) VHH: EVQLVESGGGVVQPGGSLKLSCVASGTDFSINFIRWYRQAPGKQREFVAGFTATGNTNYADSMKGRFTISRDNTKNAVYLQIDSLKPEDTAVYYCYMLDKWGQGTQVTVSS; 13.1
H1 (VHH, also called phage-H1 (as tracer)) VHH: EVQLVESGGGLVQPGGSLRLSCAASGFASHLYAIGWFRQAPGKEREKVSCISSNDGSTYYADSVKGRFTISRDTVKDMVYLQMNSLKPEDTAVYYCATDLTVHCFMAEYDWWGQGTQVTVSS; 27.8
C5^V30 (VHH) VHH: EVQLVESGGGVVQPGGSLKLSCVASGTDKSINFIRWYRQAPGKQREFVAGFTATGNTNYADSMKGRFTISRDNTKNAVYLQIDSLKPEDTAVYYCYMLDKWGQGTQVTVSS; 339
B8^V36 (VHH) VHH: EVQLVESGGGVVQPGGSLRLSCAASGEIFSINVMRWYRQAPGKQREWVAGFTRDGSTNYPDSAKGRFTISRDNAKNTVYLQIDSLKPEDTAVYYCYMLDTWGQGTQVTVSS; 206
B8^V27 (VHH) VHH: EVQLVESGGGVVQPGGSLRLSCAASGEIFSINFMRWYRQAPGKQREWVAGFTRDGSTVYPDSAKGRFTISRDNAKNTVYLQIDSLKPEDTAVYYCYMLDTWGQGTQVTVSS; 36.8
B8^V29 (VHH) VHH: EVQLVESGGGVVQPGGSLRLSCAASGEIFSINFMRWYRQAPGKQREWVAGFTRDGSTNYPDSAKGRFTISRDNAKNTVYLQIDSLKPEDTAVYYCYMADTWGQGTQVTVSS; 100
B8^V37 (VHH) VHH: EVQLVESGGGVVQPGGSLRLSCAASGEIFSINFMRWYRQAPGKQREWVAGFTRDGSTNYPDSAKGRFTISEDNAKNTVYLQIDSLKPEDTAVYYCYMLRTWGQGTQVTVSS; 175

// B8^V33 (VHH) VHH: EVQLVESGGGVVQPGGSLRLSCAASGEIFSINFMRWYRQAPGKQREWVAGFTRDGSTNYPDSAKGRFTISRDNAKNTVYLQIDSLKPEDTAVYYCYMLKTWGQGTQVTVSS : Kd value = 86
